assay: Selectivity index, ratio of IC50 for cytotoxicity against human HepG2 cells to MIC for antimycobacterial activity against Mycobacterium tuberculosis H37Rv; type: toxicity, cell-based; conditions: read-out: Selectivity Index
Listed here: items and their measured selectivity ratio.
Reply with the value as a number alone.

The following molecules have reported results that may help.
O=C(Nc1ccc(C(=O)O)c(O)c1)c1ccc2ccccc2n1    198
Nc1ccc(C(=O)O)c(O)c1 [AMINOSALICYLIC ACID]    62.1
O=C(Nc1ccc(C(=O)O)c(O)c1)c1ccncc1    82.5
O=C(Nc1ccc(C(=O)O)c(O)c1)c1cccc(Cl)n1    93.5
O=C(Nc1ccc(C(=O)O)c(O)c1)c1ccccn1    166
O=C(Nc1ccc(C(=O)O)c(O)c1)c1ccc(Cl)nc1    188

Any idea what selectivity ratio was measured for "Cc1cc(C(=O)Nc2ccc(C(=O)O)c(O)c2)ccn1" ?
21.8

Any idea what selectivity ratio was measured for "O=C(Nc1ccc(C(=O)O)c(O)c1)c1cccc(C(F)(F)F)n1" ?
34.1

Any idea what selectivity ratio was measured for "Cc1cc(C(=O)Nc2ccc(C(=O)O)c(O)c2)cc(O)n1" ?
46.1

Any idea what selectivity ratio was measured for "COc1ccnc(C(=O)Nc2ccc(C(=O)O)c(O)c2)c1" ?
185

----------
Listed here: items and their measured microsomal CLint at 3 µM.
test: Metabolic stability in human liver microsomes assessed as intrinsic clearance at 3 uM incubated for 45 mins by HPLC analysis; assay type: ADME, Microsome; details: read-out: CLH
Report the figure in µL/min/mg without appending any unit label.

O=C(Nc1ccc(C(=O)O)c(O)c1)c1ccc2ccccc2n1    2.2

Any idea what microsomal CLint at 3 µM was measured for "O=C(Nc1ccc2c(c1)OCOC2=O)c1ccc2ccccc2n1" ?
122

Origin of values: ChEMBL document CHEMBL5625173
